Some compounds, each annotated with its measured GI50.
system: U-251; test: NCI tumour cell line growth inhibition, 48 h
The source made the active and inactive calls. Cut-off read from the data, not from the text of the source: active = GI50 up to about 1.1 µM and inactive = higher.

[
  {
    "COMPOUND": "O=c1[nH]c(=O)n(C2CC(O)C(CO)O2)cc1I (configuration not stated)",
    "GI50": "> 100 µM (inactive)"
  },
  {
    "COMPOUND": "Cc1cc(S(=O)(=O)Nc2nc(N)n[nH]2)c(SCC(=O)O)cc1Cl",
    "GI50": "> 10 µM (inactive)"
  },
  {
    "COMPOUND": "Cc1ccc(NC(=O)C(=O)C2C(=O)NC(=O)NC2=O)c(C)c1",
    "GI50": "> 100 µM (inactive)"
  },
  {
    "COMPOUND": "[O-][n+]1c2ccccc2[n+]([O-])c2ccccc21",
    "GI50": "> 100 µM (inactive)"
  },
  {
    "COMPOUND": "COc1ccc2nc3ccc(OC)cc3c([S+]([O-])Cc3ccccc3)c2c1 (configuration not stated)",
    "GI50": "20.5 µM (inactive)"
  },
  {
    "COMPOUND": "CC1(C)OCC2(CO1)CSCCCSCC1(COC(C)(C)OC1)CSCCCSC2",
    "GI50": "> 100 µM (inactive)"
  },
  {
    "COMPOUND": "NC(=O)c1cccc(/N=c2\\oc3ccc(Br)cc3cc2-c2nc3ccccc3[nH]2)c1",
    "GI50": "13.2 µM (inactive)"
  },
  {
    "COMPOUND": "COc1ccc(/C=C/C(=O)c2cc(C(=O)O)c(OC)cc2OC)cc1OC",
    "GI50": "> 100 µM (inactive)"
  },
  {
    "COMPOUND": "CN(C)CCNC(=O)c1nc([N+](=O)[O-])cn1C",
    "GI50": "> 100 µM (inactive)"
  },
  {
    "COMPOUND": "NNS(=O)(=O)c1cc(C(=O)O)cc(C(=O)O)c1",
    "GI50": "> 100 µM (inactive)"
  },
  {
    "COMPOUND": "COC(=O)C(=O)C(C(=O)C(=O)Nc1cc(C)ccc1C)c1nc2ccc(C(=O)c3ccccc3)cc2nc1O (configuration not stated)",
    "GI50": "> 100 µM (inactive)"
  },
  {
    "COMPOUND": "O=S(=O)(O)c1cc(S(=O)(=O)O)c2c(/N=N/c3ccc(S(=O)(=O)O)c4ccccc34)c(O)ccc2c1",
    "GI50": "> 100 µM (inactive)"
  }
]

###

Some compounds, each annotated with its measured GI50.
tested on: NCI-H23; experiment: NCI tumour cell line growth inhibition, 48 h
Activity calls are given as the source filed them. Cut-off read from the data, not from the text of the source: active = GI50 up to about 1.1 µM and inactive = higher.
ENDPOINT LABEL: GI50

[
  {
    "COMPOUND": "O=CC1C(=O)Nc2nc3ccccc3n2C1c1ccccc1 (stereo not drawn)",
    "TESTED ON": "NCI-H23",
    "MEASURED RESULT": "19.2 µM (inactive)"
  },
  {
    "COMPOUND": "C[C@]1(O)CC(=O)c2c(c(-c3ccc4cc5c(c(O)c4c3O)C(=O)C[C@@](C)(O)C5)c3cccc(O)c3c2O)C1",
    "TESTED ON": "NCI-H23",
    "MEASURED RESULT": "3.69 µM (inactive)"
  },
  {
    "COMPOUND": "CN(C)C(=S)/N=c1\\ss/c(=N\\C(=S)N(C)C)n1C1CCCCC1",
    "TESTED ON": "NCI-H23",
    "MEASURED RESULT": "63.2 µM (inactive)"
  },
  {
    "COMPOUND": "CN(CN1C(=O)C2Cc3ccccc3CN2C1=O)c1ccccn1 (stereo not drawn)",
    "TESTED ON": "NCI-H23",
    "MEASURED RESULT": "> 100 µM (inactive)"
  },
  {
    "COMPOUND": "COC(=N)C(C)C",
    "TESTED ON": "NCI-H23",
    "MEASURED RESULT": "> 100 µM (inactive)"
  },
  {
    "COMPOUND": "C/C(=N\\N)C(CN1CCCCC1)C(c1ccccc1)c1c(O)c2ccccc2oc1=O (stereo not drawn)",
    "TESTED ON": "NCI-H23",
    "MEASURED RESULT": "> 100 µM (inactive)"
  },
  {
    "COMPOUND": "Cc1nc(C(N)=S)sc1C(=O)CC(=O)C(=O)Nc1nc2ccccc2[nH]1",
    "TESTED ON": "NCI-H23",
    "MEASURED RESULT": "> 100 µM (inactive)"
  },
  {
    "COMPOUND": "O=[PH](O)c1cc2ccccc2c2ccccc12",
    "TESTED ON": "NCI-H23",
    "MEASURED RESULT": "> 100 µM (inactive)"
  },
  {
    "COMPOUND": "Cc1cc(N(CCC#N)CCC#N)ccc1/C=C(\\NC(=O)/C=C/c1ccccc1)C(=O)NN",
    "TESTED ON": "NCI-H23",
    "MEASURED RESULT": "> 65.8 µM (inactive)"
  },
  {
    "COMPOUND": "O=C(c1ccco1)N(C(=S)N1CCN(c2ccccc2)CC1)C1CCCCC1",
    "TESTED ON": "NCI-H23",
    "MEASURED RESULT": "> 100 µM (inactive)"
  },
  {
    "COMPOUND": "Cc1cc2[nH]c3[nH]c(=O)[nH]c(=O)c3c2cc1C",
    "TESTED ON": "NCI-H23",
    "MEASURED RESULT": "> 100 µM (inactive)"
  },
  {
    "COMPOUND": "Cn1c(=O)oc2cc(Br)ccc21",
    "TESTED ON": "NCI-H23",
    "MEASURED RESULT": "> 100 µM (inactive)"
  },
  {
    "COMPOUND": "CCOCC(=O)N(C)c1cccc2c3c(n(C)c12)CCCCC3",
    "TESTED ON": "NCI-H23",
    "MEASURED RESULT": "> 100 µM (inactive)"
  }
]

###

system: ACHN; assay: NCI tumour cell line growth inhibition, 48 h
Activity calls are given as the source filed them. No stated cut-off is given here; in the data, active = GI50 up to about 1.1 µM and inactive = higher.
Some compounds, each annotated with its measured GI50.

[
  {
    "COMPOUND": "O=[N+]([O-])c1ccc(/C(Cl)=C/c2ccc(/C=C(\\Cl)c3ccc([N+](=O)[O-])cc3[N+](=O)[O-])cc2)c([N+](=O)[O-])c1",
    "GI50": "> 100 µM (inactive)"
  },
  {
    "COMPOUND": "Cc1cc(N(CCC#N)CCC#N)ccc1/C=C(\\NC(=O)/C=C/c1ccccc1)C(=O)NN",
    "GI50": "> 80.9 µM (inactive)"
  },
  {
    "COMPOUND": "Clc1ccc(OCC2NC3C=CC32)cn1 (configuration not stated)",
    "GI50": "> 100 µM (inactive)"
  },
  {
    "COMPOUND": "C[N+](C)(CCNC(=O)c1cccc2cc3ccccc3nc12)Cc1ccc([N+](=O)[O-])cc1",
    "GI50": "> 100 µM (inactive)"
  },
  {
    "COMPOUND": "COc1cc2ccc3ccncc3c2cc1OC",
    "GI50": "> 10 µM (inactive)"
  },
  {
    "COMPOUND": "COc1cc(CCCC(O)COc2cccc3c2C2(O)CCCCCC32)cc(OC)c1 (configuration not stated)",
    "GI50": "15.7 µM (inactive)"
  },
  {
    "COMPOUND": "O/N=C1/CCCC/C1=C/C=C/c1ccccc1",
    "GI50": "25.6 µM (inactive)"
  },
  {
    "COMPOUND": "C/C(=N\\N)C(CN1CCCCC1)C(c1ccccc1)c1c(O)c2ccccc2oc1=O (configuration not stated)",
    "GI50": "> 100 µM (inactive)"
  },
  {
    "COMPOUND": "C1CSC2=C(S1)SC1=C(S2)SC(=C2SC3=C(SC4=C(SCCS4)S3)S2)S1",
    "GI50": "> 100 µM (inactive)"
  },
  {
    "COMPOUND": "COC(=O)C(C(=O)Cc1ccccc1[N+](=O)[O-])C(=O)OC",
    "GI50": "> 100 µM (inactive)"
  },
  {
    "COMPOUND": "NC(=S)N/N=C/C(=C/Nc1ccccc1)[N+](=O)[O-]",
    "GI50": "> 100 µM (inactive)"
  },
  {
    "COMPOUND": "C(#C[C@@]12CCC[C@@H]1N(Cc1ccccc1)CO2)c1ccc2c(c1)OCO2",
    "GI50": "> 100 µM (inactive)"
  }
]
